Source of measurements: ChEMBL document CHEMBL1143703

assay: Inhibition of trypsin-like activity of rabbit reticulocyte 20S proteasome; set-up: species or system Oryctolagus cuniculus
Residues, ends and D or L forms follow the SMILES beside them. *: point of attachment. Boc = CC(C)(C)OC(=O)*; NHBn = c1ccc(CN*)cc1; Bn = c1ccc(C*)cc1
recordedEndpoint: pKi
For clarity, pKi is expressed as the negative log10 of concentration in mol/L.

Lookup: Please look at this molecule and report its pKi: C[C@H](NC(=O)[C@H](Cc1ccc(OCc2ccccc2)c(I)c1)NC(=O)OC(C)(C)C)C(=O)N[C@@H](Cc1c[nH]c2c(Br)cccc12)C(=O)O
Found: 5.52

Lookup: Please look at this molecule and report its pKi: CC(C)(C)OC(=O)N[C@@H](Cc1ccc(O)cc1)C(=O)N[C@@H](CCCNC(=N)N)C(=O)N[C@@H](Cc1c[nH]c2ccccc12)C(=O)NCc1ccccc1 (Boc-Tyr-Arg-Trp-NHBn)
Found: 5.41

Lookup: Please look at this molecule and report its pKi: CC(C)C[C@H](NC(=O)[C@@H](N)Cc1ccc(OCc2ccccc2)cc1)C(=O)N[C@@H](Cc1c[nH]c2ccccc12)C(=O)NCCCCN
Found: 6.48

Lookup: Please look at this molecule and report its pKi: NCCCC[C@H](NC(=O)[C@@H](N)Cc1ccc(OCc2ccccc2)cc1)C(=O)N[C@@H](Cc1c[nH]c2ccccc12)C(=O)NCc1ccccc1 (H-Tyr(Bn)-Lys-Trp-NHBn)
Found: 6.49
